Tested on: TO-N3 (biotin conjugate)
test summary: pull-down binding Z-score (relative to library population); higher = stronger binding
experimental conditions: RNA library: Library-2
measurement label: pull-down binding Z-score
// response body must contain only the number

sequence data	pull-down binding Z-score
CCUUCUGCUUACAGGUAUUGGAAGG [hsa-mir-3158-1]	-0.371

Fill in: pull-down binding Z-score of CAGUGAACUAUCAUUGUGCCACUG [hsa-mir-1254-1] is ___
0.135

Then this sequence: GAGUGAAUC [hsa-mir-3610]
-0.454

* * *

System: G-clamp-N3 (biotin conjugate)
test summary: pull-down binding Z-score (relative to library population); higher = stronger binding
experimental conditions: RNA library: Library-1 (pre-miRNA loops + repeats)
Could you please classify the records by pull-down binding Z-score using these ranges: range A (below -0.2), range B (-0.2 to below 0.7), range C (0.7 or more)

Some solved entries appear below for comparison.
sequence data	class name
ACAGUGGACUUGGUGACGCUGU [hsa-mir-675]	range C
CGGUCGGAUAAUCACAUGACGAG [hsa-mir-2114]	range B

Bin? UAUUUCAAAAGACUAGAGGUAGGAAAUGAG [hsa-mir-3975]
range C

Another sequence: CACGUGCUGCUUGUAUAGACAUGAG [hsa-mir-3659]
range B

Same question for UGCUUGAUCCAUAUGCAACAAGGCA [hsa-mir-103b-1] please.
range A

Likewise for UCAGGGAGAAAGUGCAUACAGCCCCUG [hsa-mir-328] ?
range A

Follow-up item: UUUGGCUGCCAAAAGAAAUGGCCAAA [hsa-mir-548at]
range A

Then UUUUGCAGUUUUUUUAAGUAAUUGCAAAA [hsa-mir-548f-3] ?
range B

Please give the result for AUCUGAGGUGACUGGCACAGAAGACUCAGG [hsa-mir-6735] too.
range A
